target: T1, TRCW5 antigen (CD3δε-Fc-Avi) (biotinylated (site not stated)); experiment: binding after heat
T1 construct: also called recombinant CD3
T1 sequence (chain, as listed by the source mutant limits assumed): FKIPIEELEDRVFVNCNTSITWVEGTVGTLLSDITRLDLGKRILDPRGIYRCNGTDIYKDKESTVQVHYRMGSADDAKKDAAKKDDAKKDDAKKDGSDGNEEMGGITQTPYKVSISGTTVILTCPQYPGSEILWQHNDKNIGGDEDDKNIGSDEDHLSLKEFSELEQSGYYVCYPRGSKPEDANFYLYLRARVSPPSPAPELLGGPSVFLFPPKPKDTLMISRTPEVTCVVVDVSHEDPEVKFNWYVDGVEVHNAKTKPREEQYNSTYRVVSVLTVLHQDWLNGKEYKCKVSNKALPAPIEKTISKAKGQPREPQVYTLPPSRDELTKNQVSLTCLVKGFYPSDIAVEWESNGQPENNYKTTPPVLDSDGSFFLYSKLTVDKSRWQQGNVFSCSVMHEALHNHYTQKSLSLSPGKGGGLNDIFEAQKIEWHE
OBSERVED_PROPERTY: % Retained 60° C. (%)
Numeric answer only, unit % assumed.

| BINDER | U | RESULT_VALUE |
| --- | --- | --- |
| CD3B2030 N106L (scFv) scFv: QVQLVQSGAEVKKPGSSVKVSCKASGYTFTRSTMHWVKQAPGQGLEWIGYINPSSAYTNYNQKFQGRVTLTADKSTSTAYMELSSLRSEDTAVYYCASPQVHYDYLGFPYWGQGTLVTVSSGGSEGKSSGSGSESKSTGGSEIVLTQSPATLSASPGERVTLSCSASSSVSYMNWYQQKPGQAPRRWIYDSSKLASGVPARFSGSGSGRDYTLTISSLEPEDFAVYYCQQWSRNPPTFGGGTKVEIK | % | 100 |
| CD3B2030 N106Q (scFv, also called CD3B2030 NtoQ) scFv: QVQLVQSGAEVKKPGSSVKVSCKASGYTFTRSTMHWVKQAPGQGLEWIGYINPSSAYTNYNQKFQGRVTLTADKSTSTAYMELSSLRSEDTAVYYCASPQVHYDYQGFPYWGQGTLVTVSSGGSEGKSSGSGSESKSTGGSEIVLTQSPATLSASPGERVTLSCSASSSVSYMNWYQQKPGQAPRRWIYDSSKLASGVPARFSGSGSGRDYTLTISSLEPEDFAVYYCQQWSRNPPTFGGGTKVEIK | % | 97.5 |

Looking for the measured % Retained 60° C. of CD3B2030 N106R (scFv) scFv: QVQLVQSGAEVKKPGSSVKVSCKASGYTFTRSTMHWVKQAPGQGLEWIGYINPSSAYTNYNQKFQGRVTLTADKSTSTAYMELSSLRSEDTAVYYCASPQVHYDYRGFPYWGQGTLVTVSSGGSEGKSSGSGSESKSTGGSEIVLTQSPATLSASPGERVTLSCSASSSVSYMNWYQQKPGQAPRRWIYDSSKLASGVPARFSGSGSGRDYTLTISSLEPEDFAVYYCQQWSRNPPTFGGGTKVEIK , can you help? 104
